Value source: patent US20120316105A1

A collection of molecules and their measured AB-3167 MIC
Test system: AB-3167, clinical isolate of Acinetobacter baumannii
Assay type: cell-based
reported-conditions: AB-3167, clinical isolate of
Bridge positions count the residues as written; N and C are the ends. Square brackets hold non-standard residues; d marks the D form. Peptide text beside a SMILES is read from it. * marks the point of attachment. X29 = COc1cc(C(=O)*)cc(-c2ccccc2)c1; X35 = N#Cc1ccc(C(=O)*)cc1-c1ccccc1; Dab = NCC[C@H](N)C(=O)O; Dap = NC[C@H](N)C(=O)O
A number alone suffices; assume µg/mL.

>>> experimental_value("COc1cc(C(=O)N[C@@H](CCN)C(=O)N[C@H](C(=O)N[C@@H](CN)C(=O)N[C@H]2CCNC(=O)[C@H]([C@@H](C)O)NC(=O)[C@H](CCN)NC(=O)[C@H](CCN)NC(=O)[C@H](CC(C)C)NC(=O)[C@@H](Cc3ccccc3)NC(=O)[C@H](CCN)NC2=O)[C@@H](C)O)cc(-c2ccccc2)c1 [Example 17] (X29-[Dab]T[Dap][Dab][Dab][dF]L[Dab][Dab]T; lactam 4-C)")
0.25

Now consider a different molecule.
Entry CC(C)C[C@@H]1NC(=O)[C@@H](Cc2ccccc2)NC(=O)[C@H](CCN)NC(=O)[C@@H](NC(=O)[C@H](CN)NC(=O)[C@@H](NC(=O)[C@H](CCN)NC(=O)c2ccc(C#N)c(-c3ccccc3)c2)[C@@H](C)O)CCNC(=O)[C@H]([C@@H](C)O)NC(=O)[C@H](CCN)NC(=O)[C@H](CCN)NC1=O [Example 2] (X35-[Dab]T[Dap][Dab][Dab][dF]L[Dab][Dab]T; lactam 4-C) : reported AB-3167 MIC = ?
0.25

###

Tested on: AB-3167, clinical isolate of Acinetobacter baumannii
Type: cell-based
reported-conditions: AB-3167, clinical isolate of
Bridge positions count the residues as written; N and C are the ends. Square brackets hold non-standard residues; d marks the D form. Peptide text beside a SMILES is read from it. * marks the point of attachment. X26 = O=C(c1ccnc(-c2ccc(Cl)cc2)c1)*; X11 = Cc1ccccc1-c1cccc(C(=O)*)c1; X16 = O=C(c1ccc(-c2ccccc2)nc1)*; Dab = NCC[C@H](N)C(=O)O; Dap = NC[C@H](N)C(=O)O
A collection of molecules and their measured AB-3167 MIC
A number alone suffices; assume µg/mL.

Recorded AB-3167 MIC, per entry:
>>> experimental_value("CC(C)C[C@@H]1NC(=O)[C@@H](Cc2ccccc2)NC(=O)[C@H](CCN)NC(=O)[C@@H](NC(=O)[C@H](CN)NC(=O)[C@@H](NC(=O)[C@H](CCN)NC(=O)c2ccnc(-c3ccc(Cl)cc3)c2)[C@@H](C)O)CCNC(=O)[C@H]([C@@H](C)O)NC(=O)[C@H](CCN)NC(=O)[C@H](CCN)NC1=O [Example 44] (X26-[Dab]T[Dap][Dab][Dab][dF]L[Dab][Dab]T; lactam 4-C)")
0.25
>>> experimental_value("CC(C)C[C@@H]1NC(=O)[C@@H](Cc2ccccc2)NC(=O)[C@H](CCN)NC(=O)[C@@H](NC(=O)[C@H](CN)NC(=O)[C@@H](NC(=O)[C@H](CCN)NC(=O)c2ccc(-c3ccccc3)nc2)[C@@H](C)O)CCNC(=O)[C@H]([C@@H](C)O)NC(=O)[C@H](CCN)NC(=O)[C@H](CCN)NC1=O [Example 27] (X16-[Dab]T[Dap][Dab][Dab][dF]L[Dab][Dab]T; lactam 4-C)")
0.25

Entry Cc1ccccc1-c1cccc(C(=O)N[C@@H](CCN)C(=O)N[C@H](C(=O)N[C@@H](CN)C(=O)N[C@H]2CCNC(=O)[C@H]([C@@H](C)O)NC(=O)[C@H](CCN)NC(=O)[C@H](CCN)NC(=O)[C@H](CC(C)C)NC(=O)[C@@H](Cc3ccccc3)NC(=O)[C@H](CCN)NC2=O)[C@@H](C)O)c1 [Example 21] (X11-[Dab]T[Dap][Dab][Dab][dF]L[Dab][Dab]T; lactam 4-C) : reported AB-3167 MIC = ?
0.25

###

Test system: KP-5016, ESBL+ clinical isolate of Klebsiella pneumoniae (SHV-5)
protocol-description: Minimum inhibitory concentration (MIC, CLSI), KP-5016
Type: cell-based
reported-conditions: K. pneumoniae KP-5016; overnight incubation, lower of duplicate values; trifluoroacetate salt (Example 1 and PMB sulfate)
Bridge positions count the residues as written; N and C are the ends. Square brackets hold non-standard residues; d marks the D form. Peptide text beside a SMILES is read from it. * marks the point of attachment. Isonicotinoyl(2-Ph) = O=C(c1ccnc(-c2ccccc2)c1)*; X3 = O=C(c1ccnc(-c2cccc(Cl)c2)c1)*; X1 = CC[C@H](C)CCCCC(=O)*; dDap = NC[C@@H](N)C(=O)O; Dab = NCC[C@H](N)C(=O)O; Dap = NC[C@H](N)C(=O)O
attribute-measured: KP-5016 MIC (µg/mL)
A number alone suffices; assume µg/mL.

Recorded KP-5016 MIC, per entry:
>>> experimental_value("CC(C)C[C@@H]1NC(=O)[C@@H](Cc2ccccc2)NC(=O)[C@H](CCN)NC(=O)[C@@H](NC(=O)[C@H](CN)NC(=O)[C@H](CO)NC(=O)[C@H](CCN)NC(=O)c2ccnc(-c3ccccc3)c2)CCNC(=O)[C@H]([C@@H](C)O)NC(=O)[C@H](CCN)NC(=O)[C@H](CCN)NC1=O [Example 46] ({Isonicotinoyl(2-Ph)}-[Dab]S[Dap][Dab][Dab][dF]L[Dab][Dab]T; lactam 4-C)")
64
>>> experimental_value("CC[C@H](C)CCCCC(=O)N[C@@H](CCN)C(=O)N[C@H](C(=O)N[C@@H](CCN)C(=O)N[C@H]1CCNC(=O)[C@H]([C@@H](C)O)NC(=O)[C@H](CCN)NC(=O)[C@H](CCN)NC(=O)[C@H](CC(C)C)NC(=O)[C@@H](Cc2ccccc2)NC(=O)[C@H](CCN)NC1=O)[C@@H](C)O [PMB1, polymyxin B1, reference compound] (X1-[Dab]T[Dab][Dab][Dab][dF]L[Dab][Dab]T; lactam 4-C)")
16
>>> experimental_value("CC(C)C[C@@H]1NC(=O)[C@@H](Cc2ccccc2)NC(=O)[C@H](CCN)NC(=O)[C@@H](NC(=O)[C@@H](CN)NC(=O)[C@@H](NC(=O)[C@H](CCN)NC(=O)c2ccnc(-c3ccccc3)c2)[C@@H](C)O)CCNC(=O)[C@H]([C@@H](C)O)NC(=O)[C@H](CCN)NC(=O)[C@H](CCN)NC1=O [Example 47] ({Isonicotinoyl(2-Ph)}-[Dab]T[dDap][Dab][Dab][dF]L[Dab][Dab]T; lactam 4-C)")
8
>>> experimental_value("CC[C@H](C)[C@@H]1NC(=O)[C@@H](Cc2ccccc2)NC(=O)[C@H](CCN)NC(=O)[C@@H](NC(=O)[C@H](CN)NC(=O)[C@@H](NC(=O)[C@H](CCN)NC(=O)c2ccnc(-c3cccc(Cl)c3)c2)[C@@H](C)O)CCNC(=O)[C@H]([C@@H](C)O)NC(=O)[C@H](CCN)NC(=O)[C@H](CCN)NC1=O [Example 48] (X3-[Dab]T[Dap][Dab][Dab][dF]I[Dab][Dab]T; lactam 4-C)")
32

Now consider a different compound.
Entry CC[C@H](C)[C@@H]1NC(=O)[C@@H](Cc2ccccc2)NC(=O)[C@H](CCN)NC(=O)[C@@H](NC(=O)[C@H](CN)NC(=O)[C@@H](NC(=O)[C@H](CCN)NC(=O)c2ccnc(-c3ccccc3)c2)[C@@H](C)O)CCNC(=O)[C@H]([C@@H](C)O)NC(=O)[C@H](CCN)NC(=O)[C@H](CCN)NC1=O [Example 49] ({Isonicotinoyl(2-Ph)}-[Dab]T[Dap][Dab][Dab][dF]I[Dab][Dab]T; lactam 4-C) : reported KP-5016 MIC = ?
16

###

Test system: AB-3167, clinical isolate of Acinetobacter baumannii
Format: cell-based
reported-conditions: AB-3167, clinical isolate of
Bridge positions count the residues as written; N and C are the ends. Square brackets hold non-standard residues; d marks the D form. Peptide text beside a SMILES is read from it. * marks the point of attachment. X2 = N#Cc1ccc(-c2cc(C(=O)*)ccn2)cc1F; 2Naphthoyl = O=C(c1ccc2ccccc2c1)*; X12 = O=C(c1cccc(-c2ccccc2F)c1)*; Dab = NCC[C@H](N)C(=O)O; Dap = NC[C@H](N)C(=O)O
A collection of compounds and their measured AB-3167 MIC
A number alone suffices; assume µg/mL.

Recorded AB-3167 MIC, per entry:
>>> experimental_value("CC(C)C[C@@H]1NC(=O)[C@@H](Cc2ccccc2)NC(=O)[C@H](CCN)NC(=O)[C@@H](NC(=O)[C@H](CN)NC(=O)[C@@H](NC(=O)[C@H](CCN)NC(=O)c2ccc3ccccc3c2)[C@@H](C)O)CCNC(=O)[C@H]([C@@H](C)O)NC(=O)[C@H](CCN)NC(=O)[C@H](CCN)NC1=O [Example 6] (2Naphthoyl-[Dab]T[Dap][Dab][Dab][dF]L[Dab][Dab]T; lactam 4-C)")
0.25
>>> experimental_value("CC(C)C[C@@H]1NC(=O)[C@@H](Cc2ccccc2)NC(=O)[C@H](CCN)NC(=O)[C@@H](NC(=O)[C@H](CN)NC(=O)[C@@H](NC(=O)[C@H](CCN)NC(=O)c2cccc(-c3ccccc3F)c2)[C@@H](C)O)CCNC(=O)[C@H]([C@@H](C)O)NC(=O)[C@H](CCN)NC(=O)[C@H](CCN)NC1=O [Example 9] (X12-[Dab]T[Dap][Dab][Dab][dF]L[Dab][Dab]T; lactam 4-C)")
0.25

For AB-3167, clinical isolate of Acinetobacter baumannii, provide AB-3167 MIC of CC(C)C[C@@H]1NC(=O)[C@@H](Cc2ccccc2)NC(=O)[C@H](CCN)NC(=O)[C@@H](NC(=O)[C@H](CN)NC(=O)[C@@H](NC(=O)[C@H](CCN)NC(=O)c2ccnc(-c3ccc(C#N)c(F)c3)c2)[C@@H](C)O)CCNC(=O)[C@H]([C@@H](C)O)NC(=O)[C@H](CCN)NC(=O)[C@H](CCN)NC1=O [Example 31] (X2-[Dab]T[Dap][Dab][Dab][dF]L[Dab][Dab]T; lactam 4-C) please.
0.5
